System tested: T1, tip-chimeric peptide IhfA5-mIhfB4NTHI (nontypeable Haemophilus influenzae …)
T1 construct: also called IHF(NTHI) tip chimeric peptide; IHFNTHI tip chimeric peptide
T1 peptide: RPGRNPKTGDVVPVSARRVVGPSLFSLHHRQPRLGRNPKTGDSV
Run description: SPR Biacore 3000, HuMab immobilized, peptide as analyte
Reported metric: kon (M⁻¹ s⁻¹)

>  <Binder>
humanized anti-tip monoclonal antibody, heavy chain SEQ ID NO: 2 and light chain SEQ ID NO: 9 (antibody, V domains shown, also called H10211 (1F8.F1 Humanized HC2) + L10212 (1F8.F1 Humanized LC3)) VH: EVQLVESGGGLVQPGGSLRLSCAASGFTFRTYAMSWVRQAPGKGLEWVATIGSDRRHTYYPDSVKGRFTISRDNSKNTLYLQMNSLRAEDTAVYYCVGPYDGYYGEFDYWGQGTLVTVSS VL: DVVMTQSPDSLAVSLGERATINCKSSQSLLDSDGKTFLNWLQQKPGQPPKRLIYLVSKLDSGVPDRFSGSGSGTDFTLTISSLQAEDVAVYYCWQGTHFPYTFGQGTKLEIKR

>  <Reported metric>
kon

>  <Value unit>
M⁻¹ s⁻¹

>  <Endpoint result>
3500

$$$$
>  <Binder>
humanized anti-tip monoclonal antibody, heavy chain SEQ ID NO: 3 and light chain SEQ ID NO: 7 (antibody, V domains shown, also called H10212 (1F8.F1 Humanized HC3) + L10210 (1F8.F1 Humanized LC1)) VH: EVKLVQSGAEVKKPGASVKVSCKASGFTFRTYAMSWVRQAPGQRLEWVATIGSDRRHTYYPDKFQGRVTITRDNAKNTLYMELSSLRSEDTAVYYCVGPYDGYYGEFDYWGQGTLVTVSS VL: DVVMTQSPLSLPVTLGQPASISCRSSQSLLDSDGKTFLNWLQQRPGQSPRRLIYLVSKLDSGVPDRFSGSGSGTDFTLKISRVEAEDVGVYYCWQGTHFPYTFGQGTKLEIKR

>  <Reported metric>
kon

>  <Value unit>
M⁻¹ s⁻¹

>  <Endpoint result>
54000

$$$$
>  <Binder>
humanized anti-tip monoclonal antibody, heavy chain SEQ ID NO: 2 and light chain SEQ ID NO: 7 (antibody, V domains shown, also called H10211 (1F8.F1 Humanized HC2) + L10210 (1F8.F1 Humanized LC1)) VH: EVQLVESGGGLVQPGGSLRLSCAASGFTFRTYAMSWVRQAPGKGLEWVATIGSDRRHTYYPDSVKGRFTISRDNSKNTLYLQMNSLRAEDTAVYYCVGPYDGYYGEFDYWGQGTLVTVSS VL: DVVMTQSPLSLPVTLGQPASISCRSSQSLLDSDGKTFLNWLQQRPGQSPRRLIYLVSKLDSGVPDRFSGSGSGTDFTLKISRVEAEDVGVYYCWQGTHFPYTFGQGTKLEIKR

>  <Reported metric>
kon

>  <Value unit>
M⁻¹ s⁻¹

>  <Endpoint result>
280

$$$$

Numbers sourced from patent US20210206841A1.
